Below, each of the compounds is paired with its reported pIC50 value.
- MEASURED_TARGET: RET kinase (Homo sapiens, UniProt P07949, C634W)
- Sequence (P07949 29-1114 C634W): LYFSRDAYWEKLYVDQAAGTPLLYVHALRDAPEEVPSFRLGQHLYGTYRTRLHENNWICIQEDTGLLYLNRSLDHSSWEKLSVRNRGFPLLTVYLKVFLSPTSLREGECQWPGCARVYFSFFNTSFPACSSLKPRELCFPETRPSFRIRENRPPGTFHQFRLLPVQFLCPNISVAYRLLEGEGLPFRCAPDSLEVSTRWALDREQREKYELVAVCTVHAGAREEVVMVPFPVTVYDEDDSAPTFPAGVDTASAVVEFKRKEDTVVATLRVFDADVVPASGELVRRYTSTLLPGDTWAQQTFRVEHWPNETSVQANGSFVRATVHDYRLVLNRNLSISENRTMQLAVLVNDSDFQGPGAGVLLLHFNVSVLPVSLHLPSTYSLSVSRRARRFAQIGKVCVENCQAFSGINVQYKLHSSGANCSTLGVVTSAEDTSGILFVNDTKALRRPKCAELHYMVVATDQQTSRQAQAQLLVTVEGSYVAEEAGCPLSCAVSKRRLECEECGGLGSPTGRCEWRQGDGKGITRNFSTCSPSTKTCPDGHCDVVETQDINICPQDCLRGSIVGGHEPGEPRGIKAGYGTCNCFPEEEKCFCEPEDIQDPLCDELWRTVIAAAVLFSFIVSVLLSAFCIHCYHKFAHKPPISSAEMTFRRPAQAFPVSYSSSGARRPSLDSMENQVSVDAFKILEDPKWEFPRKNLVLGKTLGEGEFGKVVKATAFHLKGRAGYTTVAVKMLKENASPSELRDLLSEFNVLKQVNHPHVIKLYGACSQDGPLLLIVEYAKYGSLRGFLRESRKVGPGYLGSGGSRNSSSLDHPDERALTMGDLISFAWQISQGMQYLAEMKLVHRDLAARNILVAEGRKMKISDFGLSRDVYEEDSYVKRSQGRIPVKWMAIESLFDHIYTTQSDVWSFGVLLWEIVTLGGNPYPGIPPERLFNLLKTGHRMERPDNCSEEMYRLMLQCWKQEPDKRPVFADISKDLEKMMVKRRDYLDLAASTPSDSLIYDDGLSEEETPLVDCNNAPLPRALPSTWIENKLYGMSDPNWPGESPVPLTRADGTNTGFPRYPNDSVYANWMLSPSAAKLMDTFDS
- TEST_METHOD_NOTES: RET kinase cell-based mechanistic assay (constitutive RET kinase phosphorylation in TT cells)
pIC50: −log10 of the molar value. Structures can show the parent of a compound that is named as a salt.

COMPOUND: CCOc1cc(-c2ccc(CC(=O)Nc3cc(C(C)(C)C(F)(F)F)on3)c(F)c2)c[nH]c1=O
pIC50: > 7.00
--
COMPOUND: CCOc1cc(-c2ccc(CC(=O)Nc3ccc(Cl)c(Cl)c3)c(F)c2)c[nH]c1=O
pIC50: 5.00 to 6.30
--
COMPOUND: CCOc1cc(-c2ccc(CC(=O)Nc3ccc(CN(C)C)c(C(F)(F)F)c3)c(F)c2)c[nH]c1=O [Example 17, Hydrochloride]
pIC50: > 7.00
--
COMPOUND: CCOc1cc(-c2ccc(CC(=O)Nc3cc(-n4cnc(C)c4)cc(C(F)(F)F)c3)c(F)c2)c[nH]c1=O [Example 11, Hydrochloride]
pIC50: > 7.00
--
COMPOUND: CCOc1cc(-c2ccc(CC(=O)Nc3ccc(C#N)c(C(F)(F)F)c3)c(F)c2)c[nH]c1=O
pIC50: 6.30 to 7.00
--
COMPOUND: CCOc1cc(-c2ccc(CC(=O)Nc3ccc(Cl)c(C(F)(F)F)c3)c(F)c2)c[nH]c1=O
pIC50: 6.30 to 7.00
--
COMPOUND: CCOc1ncc(NC(=O)Cc2ccc(-c3c[nH]c(=O)c(OCC)c3)cc2F)cc1C(F)(F)F [Example 2, Hydrochloride]
pIC50: > 7.00

====

- MEASURED_TARGET: RET kinase (Homo sapiens, UniProt P07949, C634W)
- TEST_METHOD_NOTES: RET kinase cell-based mechanistic assay (constitutive RET kinase phosphorylation in TT cells)

COMPOUND: CCOc1cc(-c2ccc(CC(=O)Nc3ccc(CC(C)(C)CO)c(C(F)(F)F)c3)c(F)c2)c[nH]c1=O [Example 5]
IC50: < 100 nM
--
COMPOUND: CCOc1cc(=O)[nH]cc1-c1ccc(CC(=O)Nc2ccc(C#N)c(C(F)(F)F)c2)cc1F [Example 7]
IC50: 100 to 500 nM
--
COMPOUND: CCOc1cc(-c2ccc(CC(=O)Nc3cnc(C(C)(C)O)c(C(F)(F)F)c3)c(F)c2)c[nH]c1=O [Example 1]
IC50: 100 to 500 nM
--
COMPOUND: CCOc1cc(-c2ccc(CC(=O)Nc3ccc(C(N)=O)c(C(F)(F)F)c3)c(F)c2)c[nH]c1=O [Example 23]
IC50: 500 to 10000 nM
--
COMPOUND: CCOc1cc(-c2ccc(CC(=O)Nc3cc(C(F)(F)F)c(F)cc3F)c(F)c2)c[nH]c1=O [Example 24]
IC50: 100 to 500 nM
--
COMPOUND: CCOc1cc(-c2ccc(CC(=O)Nc3ccc(CC(C)(C)CO)c(C(F)(F)F)c3)cc2F)c[nH]c1=O [Example 6]
IC50: < 100 nM
--
COMPOUND: CCOc1cc(-c2ccc(CC(=O)Nc3ccc(OCCO)c(C(F)(F)F)c3)c(F)c2)c[nH]c1=O [Example 13]
IC50: 100 to 500 nM
--
COMPOUND: CCOc1cc(-c2ccc(CC(=O)Nc3cc(C(F)(F)F)cc(C(F)(F)F)c3)c(F)c2)c[nH]c1=O [Example 25]
IC50: 100 to 500 nM
